B1: CAMK2D (parent)
chain: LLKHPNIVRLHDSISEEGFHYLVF

variants of: B1; experiment: protein stability index of a GFP-peptide fusion (GPS, HEK-293T) (PSI 1-6); higher = more stable; details: c terminus: a fixed tail appended;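 note: lentivirally expressed fusions sorted by FACS into six bins by GFP to DsRed ratio, PSI derived from sequencing read proportions per bin multiplied by bin number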
Measured metric: protein stability index
Answer using only a numeral; do not append any unit.

Reported protein stability index ( LLKHPNIVRLWDSISEEGFHYLVF [H11W] ) = 2.62
